PI3Kα (Homo sapiens, UniProt P42336): reported log10 IC50 for various molecules.
Sequence (P42336 whole entry, species assumed): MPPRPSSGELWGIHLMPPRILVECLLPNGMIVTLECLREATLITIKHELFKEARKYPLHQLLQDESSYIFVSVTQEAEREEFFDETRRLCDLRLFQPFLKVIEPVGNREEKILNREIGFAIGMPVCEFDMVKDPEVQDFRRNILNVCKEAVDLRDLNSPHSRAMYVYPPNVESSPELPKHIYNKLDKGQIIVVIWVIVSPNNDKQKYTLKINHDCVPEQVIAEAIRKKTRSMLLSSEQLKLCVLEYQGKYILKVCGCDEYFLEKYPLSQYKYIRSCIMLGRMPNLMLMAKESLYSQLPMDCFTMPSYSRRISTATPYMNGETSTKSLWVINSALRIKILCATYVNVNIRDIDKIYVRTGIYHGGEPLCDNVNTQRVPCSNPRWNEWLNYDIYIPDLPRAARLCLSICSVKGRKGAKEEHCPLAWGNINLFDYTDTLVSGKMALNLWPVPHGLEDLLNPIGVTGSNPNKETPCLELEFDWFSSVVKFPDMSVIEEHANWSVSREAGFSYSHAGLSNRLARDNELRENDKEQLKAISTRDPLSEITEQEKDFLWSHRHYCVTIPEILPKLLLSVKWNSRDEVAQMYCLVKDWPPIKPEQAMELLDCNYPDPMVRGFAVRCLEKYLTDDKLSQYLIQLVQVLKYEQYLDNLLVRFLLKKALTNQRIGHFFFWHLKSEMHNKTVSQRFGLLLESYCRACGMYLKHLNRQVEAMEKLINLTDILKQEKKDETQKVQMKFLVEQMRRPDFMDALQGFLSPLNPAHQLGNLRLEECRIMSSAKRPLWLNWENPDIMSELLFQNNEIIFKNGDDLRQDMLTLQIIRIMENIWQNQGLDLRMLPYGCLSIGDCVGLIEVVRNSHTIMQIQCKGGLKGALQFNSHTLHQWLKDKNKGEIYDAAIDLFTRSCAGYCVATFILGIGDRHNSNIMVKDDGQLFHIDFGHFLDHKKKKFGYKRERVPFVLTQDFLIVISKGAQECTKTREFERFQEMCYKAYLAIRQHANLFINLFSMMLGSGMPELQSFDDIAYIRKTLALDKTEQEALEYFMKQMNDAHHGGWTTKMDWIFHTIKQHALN
Sequence (P27986 whole entry partner, species assumed): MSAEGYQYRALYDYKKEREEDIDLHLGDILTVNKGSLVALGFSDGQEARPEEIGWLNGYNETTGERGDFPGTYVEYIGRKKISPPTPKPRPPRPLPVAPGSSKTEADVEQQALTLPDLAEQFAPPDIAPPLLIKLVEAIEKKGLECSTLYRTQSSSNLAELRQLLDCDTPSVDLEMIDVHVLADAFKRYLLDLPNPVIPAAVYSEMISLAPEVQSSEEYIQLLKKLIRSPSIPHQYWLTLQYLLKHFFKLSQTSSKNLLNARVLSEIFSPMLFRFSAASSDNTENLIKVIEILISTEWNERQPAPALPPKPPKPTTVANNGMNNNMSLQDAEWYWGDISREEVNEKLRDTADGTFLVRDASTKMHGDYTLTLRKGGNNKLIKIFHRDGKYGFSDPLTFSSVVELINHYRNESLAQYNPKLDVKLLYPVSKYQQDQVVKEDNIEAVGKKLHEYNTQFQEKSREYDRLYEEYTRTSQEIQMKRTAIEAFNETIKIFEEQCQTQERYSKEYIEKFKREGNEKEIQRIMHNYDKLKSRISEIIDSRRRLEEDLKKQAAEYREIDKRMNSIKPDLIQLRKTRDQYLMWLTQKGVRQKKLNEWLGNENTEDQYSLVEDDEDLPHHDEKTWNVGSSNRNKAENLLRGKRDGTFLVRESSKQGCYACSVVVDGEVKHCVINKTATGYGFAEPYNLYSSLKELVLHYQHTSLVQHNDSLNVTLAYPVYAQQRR
Each number you see is log10 of IC50, and the unit inside the log is µM.

Use these answered entries as a reference point.
CC1CN(c2ccnc3c2c(/C=C2\Oc4cccc(O)c4C2=O)cn3C)CC(C)O1 (centres unmarked) | -1.07
COc1ccnc(CN(C)C(=O)C2CCN(c3ccnc4c3c(/C=C3\Oc5ccc(NC(=O)Nc6cccnc6)cc5C3=O)cn4C)CC2)c1 | 0.37
Cn1cc(/C=C2\Oc3cccc(O)c3C2=O)c2c(-c3ccc(-c4ccco4)cc3)ccnc21 | -0.97
Cn1cc(/C=C2\Oc3cccc(O)c3C2=O)c2c(-c3ccc(C(=O)N4CC5CCC(C4)O5)cc3)ccnc21 | -1.24
CCN(CC)C(=O)C1CCN(c2ccnc3c2c(/C=C2\Oc4ccc(NC(=O)Nc5cccnc5)cc4C2=O)cn3C)CC1 | -0.51

For each listed entry, give its log10 IC50.
1. CNC(=O)Nc1ccc2c(c1)C(=O)/C(=C/c1cn(C)c3nccc(N4CCC(C(=O)N5CCOCC5)CC4)c13)O2
2. COCCN(C)C(=O)c1ccc(-c2ccnc3c2c(/C=C2\Oc4cccc(O)c4C2=O)cn3C)cc1
3. Cn1cc(/C=C2\Oc3ccc(NC(=O)Nc4cccnc4)cc3C2=O)c2c(-c3ccccc3)ccnc21
4. COCC1CN(C(=O)c2ccc(-c3ccnc4c3c(/C=C3\Oc5cccc(O)c5C3=O)cn4C)cc2)CCO1 (centres unmarked)
5. CN(C)C(=O)c1cccc(-c2ccnc3c2c(/C=C2\Oc4cccc(O)c4C2=O)cn3C)c1

1. -0.47
2. -1.14
3. -0.44
4. -1.14
5. -0.43

###

Consider the following compounds; for each one, report its IC50.
# system_name: UniProt:P42336
Answers are plain numbers, in µM.

Use these answered entries as a reference point.
CNC(=O)Nc1ccc2c(c1)C(=O)/C(=C/c1cn(CCN3CCN(C)CC3)c3ncc(OC)cc13)O2 [Compound 120] | 0.035
Cn1cc(/C=C2\Oc3ccc(NC(=O)C(F)(F)F)cc3C2=O)c2c(-c3ccccc3)ccnc21 [Compound 156] | 1.94
COC1CCN(C(=O)c2ccc(-c3ccnc4c3c(/C=C3\Oc5cccc(O)c5C3=O)cn4C)cc2)C1 (stereo not drawn) [Compound 249] | 0.02

For each listed entry, give its IC50.
1. Cn1cc(/C=C2\Oc3cc(O)cc(O)c3C2=O)c2c(N3CCC(O)CC3)ccnc21 [Compound 50]
2. COc1ccc2c(n1)c(C=C1Oc3c(ccc(O)c3O)C1=O)cn2C [Compound 4]

1. 0.023
2. 0.676

For each listed entry, give its IC50.
1. Cn1cc(C=C2Oc3ccc(NC(=O)Nc4cccnc4)cc3C2=O)c2c(N3CCC(C(=O)NCC(N)=O)CC3)ccnc21 [Compound 202]
2. C[C@@H]1CN(C2CCN(c3ccnc4c3c(/C=C3\Oc5ccc(NC(=O)Nc6cccnc6)cc5C3=O)cn4C)CC2)C[C@H](C)O1 [Compound 239]
3. Cn1cc(/C=C2\Oc3ccc(NC(=O)Nc4cccnc4)cc3C2=O)c2c(N3CCC(C(=O)NCCO)CC3)ccnc21 [Compound 254]

5.9
0.326
3.33

For each listed entry, give its IC50.
1. CC(=O)c1ccc(-c2ccnc3c2c(/C=C2\Oc4cccc(O)c4C2=O)cn3C)cc1 [Compound 134]
2. C[C@@H]1CN(c2ccnc3c2c(/C=C2\Oc4ccc(NC(=O)Nc5cccnc5)cc4C2=O)cn3C)C[C@H](C)O1 [Compound 296]
3. Cn1cc(/C=C2\Oc3cc(O)cc(O)c3C2=O)c2c(-c3ccc(S(C)(=O)=O)cc3)ccnc21 [Compound 72]
4. Cn1cc(/C=C2\Oc3cc(O)cc(O)c3C2=O)c2c(-c3ccc(C(N)=O)cc3)ccnc21 [Compound 34]
5. Cn1cc(/C=C2\Oc3ccc(NC(=O)Nc4cccnc4)cc3C2=O)c2c(C(=O)N3CCCCC3)ccnc21 [Compound 234]
6. Cn1c(-c2ccccc2)c(/C=C2\Oc3cc(O)cc(O)c3C2=O)c2cccnc21 [Compound 27]
7. CN1CCN(C2CCN(c3ccnc4c3c(/C=C3\Oc5cccc(O)c5C3=O)cn4C)CC2)CC1 [Compound 129]

0.055
0.239
0.005
0.006
0.253
0.82
0.047

# credit: patent US20090298820A1
